- SYSTEM UNDER TEST: T1, recombinant His-tagged cynomolgus PD-1 (Acro Biosystems) (cynomolgus, UniProt B0LAJ3 25-170)
- T1 construct: His-tagged; also called Cyno PD-1; not shown: His tag (and any linker) of the Acro Biosystems product
- T1 sequence (B0LAJ3 entry or part of it limits assumed): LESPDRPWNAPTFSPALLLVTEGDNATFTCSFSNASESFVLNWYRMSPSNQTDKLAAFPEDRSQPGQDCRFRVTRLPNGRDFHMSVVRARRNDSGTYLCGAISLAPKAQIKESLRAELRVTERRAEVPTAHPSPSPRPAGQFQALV
- EXPERIMENTAL PROTOCOL: SPR Carterra LSA;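 also: antibodies or fusion proteins amine-coupled on an HC30M chip, soluble His-tagged human or cynomolgus PD-1 titrated over them, non-regenerative kinetics, constants fitted from titration curves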

BINDER | MEASURE UNIT | kon
OMC.2.C6-hIgG4 (antibody, V domains shown) VH: EVQLLESGGGLVQPGGSLRLSCTASGFTFSSYEMQWVRQAPGKGLEWVLGITSSSSHIFYADSVKGRFTVSRDNSKNTLYLQMNSLRAEDTAVYYCTKDLNSYYGLDVWGQGTTVTVSS VL: QSVMTQPPSASGTPGQRVTISCSGSTSNLGNNYVSWYQHLPGTAPKLLIYGNDQRPSGVPDRFSGSKSGTSASLAISGLQSDDEADYYCSSWDASLNVWVFGGGTKLTVLG | M⁻¹ s⁻¹ | 55000
